Molecular target: human BRD4 first bromodomain (BDI_K57-E168) (Homo sapiens (Human))
Experiment: TR-FRET bromodomain binding assay, BRD4 first bromodomain
Recorded metric: pKi
Reminder that pKi means the negative base-10 logarithm of the concentration expressed in mol/L.

The following compounds have reported results that may help.
> print(dat)
                                   compound  recorded.value
1  Cn1cc(-c2ccccc2Oc2ccccc2)c2cc(-c3ccccc3)[nH]c2c1=O [Example 88]            6.20
2  Cn1cc(-c2cc(S(C)(=O)=O)ccc2Oc2ccc(F)cc2F)c2cc(COc3ccccc3)[nH]c2c1=O [Example 292]            7.27
3  Cn1cc(-c2cc(NS(C)(=O)=O)ccc2OC2CCOC2)c2cc[nH]c2c1=O (stereo not drawn) [Example 31]            8.74
4  Cn1cc(-c2cc(S(C)(=O)=O)ccc2Oc2ccc(F)cc2F)c2cc(C(=O)Nc3nccs3)[nH]c2c1=O [Example 257]            7.23
5  Cn1cc(-c2cc(CN3CCCS3(=O)=O)ccc2Oc2ccccc2)c2cc[nH]c2c1=O [Example 41]            8.55

The recorded pKi for CCS(=O)(=O)c1ccc(O[C@H]2CC[C@@](C)(O)CC2)c(-c2cn(C)c(=O)c3[nH]ccc23)c1 [Example 211] is 8.85

The recorded pKi for Cn1cc(-c2cc(S(C)(=O)=O)ccc2Oc2ccc(F)cc2F)c2cc(CNc3nccs3)[nH]c2c1=O [Example 283] is 7.72

The recorded pKi for Cn1cc(-c2cc(S(C)(=O)=O)ccc2Oc2ccccc2CCO)c2cc[nH]c2c1=O [Example 309] is 7.51

The recorded pKi for Cn1cc(-c2cc(S(C)(=O)=O)cnc2Oc2ccc(F)cc2F)c2cc[nH]c2c1=O [Example 288] is 7.14

The recorded pKi for Cn1cc(-c2cc(C(=O)NC3CCN(C(=O)OC(C)(C)C)CC3)ccc2Oc2ccc(F)cc2F)c2cc[nH]c2c1=O [Example 136] is 6.63

The recorded pKi for Cn1cc(-c2cc(S(C)(=O)=O)ccc2OCC2CCC2)c2cc[nH]c2c1=O [Example 234] is 8.52

The recorded pKi for Cn1cc(-c2cc(C(=O)N3CCN(C(=O)N4CCCC4)CC3)ccc2Oc2ccc(F)cc2F)c2cc[nH]c2c1=O [Example 119] is 7.35

The recorded pKi for Cn1cc(-c2cc(S(C)(=O)=O)ccc2OC2CCC2)c2cc[nH]c2c1=O [Example 213] is 8.49

The recorded pKi for CCS(=O)(=O)Nc1ccc(Oc2cncnc2)c(-c2cn(C)c(=O)c3[nH]ccc23)c1 [Example 141] is 8.27

The recorded pKi for Cn1cc(-c2cc(NS(C)(=O)=O)ccc2Oc2ccccc2)c2cc(CO)[nH]c2c1=O [Example 89] is 8.80

The recorded pKi for Cn1cc(-c2cc(C3=CCN(C(=O)OC(C)(C)C)CC3)ccc2OCC2CC2)c2cc[nH]c2c1=O [Example 325] is 6.81

The recorded pKi for CCS(=O)(=O)c1ccc(N2CCCC2)c(-c2cn(C)c(=O)c3[nH]ccc23)c1 [Example 330] is 7.29

The recorded pKi for Cn1cc(-c2cc(C(=O)N3CCC(NC(=O)OC(C)(C)C)C3)ccc2Oc2ccc(F)cc2F)c2cc[nH]c2c1=O (stereo not drawn) [Example 54] is 7.02

The recorded pKi for CCS(=O)(=O)Nc1cc(-c2cn(C)c(=O)c3[nH]ccc23)c(Oc2ccc(F)cc2F)cc1C#N [Example 324] is 8.49

The recorded pKi for CCS(=O)(=O)N(CCC(F)(F)F)c1ccc(Oc2ccc(F)cc2F)c(-c2cn(C)c(=O)c3[nH]ccc23)c1 [Example 346] is 7.02

The recorded pKi for Cn1cc(-c2cc(CC#N)ccc2OCC2CC2)c2cc[nH]c2c1=O [Example 336] is 7.12

The recorded pKi for CCS(=O)(=O)c1ccc(OCC2CC2(F)F)c(-c2cn(C)c(=O)c3[nH]ccc23)c1 (stereo not drawn) [Example 240] is 8.70

The recorded pKi for CCS(=O)(=O)c1ccc(O[C@H]2CC[C@@](C)(OC)CC2)c(-c2cn(C)c(=O)c3[nH]ccc23)c1 [Example 268] is 9.12

The recorded pKi for Cn1cc(-c2cc(C(=O)Nc3ncccn3)ccc2Oc2ccc(F)cc2F)c2cc[nH]c2c1=O [Example 116] is 6.98

The recorded pKi for Cn1cc(-c2cc(C(=O)NCc3ccc(OC(F)(F)F)cc3)ccc2Oc2ccc(F)cc2F)c2cc[nH]c2c1=O [Example 126] is 5.70

The recorded pKi for CC(C)S(=O)(=O)c1ccc(Oc2ccc(F)cc2F)c(-c2cn(C)c(=O)c3[nH]ccc23)c1 [Example 271] is 8.54

The recorded pKi for CCS(=O)(=O)N(CCN1CCCC1=O)c1ccc(Oc2ccc(F)cc2F)c(-c2cn(C)c(=O)c3[nH]ccc23)c1 [Example 344] is 6.37

The recorded pKi for Cn1cc(-c2cc(C(=O)NCc3ccccn3)ccc2Oc2ccc(F)cc2F)c2cc[nH]c2c1=O [Example 129] is 7.42

The recorded pKi for CCCS(=O)(=O)Nc1ccc(Oc2ccc(C#N)cc2)c(-c2cn(C)c(=O)c3[nH]ccc23)c1 [Example 93] is 8.12

The recorded pKi for Cn1cc(-c2cc(C(=O)NCCc3ccc4c(c3)OCO4)ccc2Oc2ccc(F)cc2F)c2cc[nH]c2c1=O [Example 132] is 6.62

###

Target: human BRD4 second bromodomain (BDII_E352-M457) (Homo sapiens (Human))
Assay: TR-FRET bromodomain binding assay, BRD4 second bromodomain
Recorded metric: pKi
Reminder that pKi means the negative base-10 logarithm of the concentration expressed in mol/L.

The following compounds have reported results that may help.
> print(dat)
                                   compound  recorded.value
1  CC(O)c1cc2c(-c3cc(S(C)(=O)=O)ccc3Oc3ccc(F)cc3F)cn(C)c(=O)c2[nH]1 (stereo not shown)            7.95
2  Cn1cc(-c2cc(NS(=O)(=O)CCF)ccc2OC2CCOC2)c2cc[nH]c2c1=O (stereo not shown)            7.06
3  CCS(=O)(=O)N(CC1CC1)c1ccc(Oc2ccc(F)cc2F)c(-c2cn(C)c(=O)c3[nH]ccc23)c1            8.32
4  Cn1cc(-c2cc([N+](=O)[O-])ccc2Oc2ccccc2)c2cc[nH]c2c1=O            6.75
5  Cn1cc(-c2cc(S(=O)(=O)N3CCOCC3)ccc2OCC2CC2)c2cc[nH]c2c1=O            8.27

The recorded pKi for "Cn1cc(-c2cc(S(C)(=O)=O)ccc2Oc2ccc(F)cc2F)c2cc(CNc3ccccc3)[nH]c2c1=O" is 7.14

The recorded pKi for "CN1CCN(C(=O)c2cc3c(-c4cc(S(C)(=O)=O)ccc4Oc4ccc(F)cc4F)cn(C)c(=O)c3[nH]2)CC1" is 7.08

###

Collected pKi values appear next to each entry.
Target: human BRD4 second bromodomain (BDII_E352-M457) (Homo sapiens (Human))
Assay: TR-FRET bromodomain binding assay, BRD4 second bromodomain
Reminder that pKi means the negative base-10 logarithm of the concentration expressed in mol/L.

The following compounds have reported results that may help.
> print(dat)
                                    compound  recorded.metric  recorded.value
 1  CCS(=O)(=O)Cc1ccc(Oc2ccc(F)cc2F)c(-c2cn(C)c(=O)c3[nH]ccc23)c1              pKi            8.28
 2  Cn1cc(-c2cc(NS(=O)(=O)CCN3CCOCC3)ccc2Oc2ccc(F)cc2F)c2cc[nH]c2c1=O              pKi            7.51
 3  Cn1cc(-c2cc(-c3ccc(F)nc3)ccc2OCC2CC2)c2cc[nH]c2c1=O              pKi            6.37
 4  CCS(=O)(=O)Nc1ccc(Oc2ccc(F)cc2F)c(-c2cn(C)c(=O)c3[nH]cc(C=O)c23)c1              pKi            8.51
 5  CCCS(=O)(=O)Nc1ccc(Oc2c(F)cc(F)cc2F)c(-c2cn(C)c(=O)c3[nH]ccc23)c1              pKi            8.00
 6  CNS(=O)(=O)c1ccc(OCC2CC2)c(-c2cn(C)c(=O)c3[nH]ccc23)c1              pKi            8.82
 7  CCS(=O)(=O)Nc1ccc(OCC2CC2)c(-c2cn(C)c(=O)c3[nH]ccc23)c1C              pKi            6.77
 8  Cn1cc(-c2cc(NS(C)(=O)=O)ccc2Oc2ccccc2)c2cc[nH]c2c1=O              pKi            8.70
 9  Cn1cc(-c2cc(-c3cccnc3)ccc2OCC2CC2)c2cc[nH]c2c1=O              pKi            6.64
10  Cn1cc(-c2cc(C(=O)NCCc3ccc4c(c3)OCO4)ccc2Oc2ccc(F)cc2F)c2cc[nH]c2c1=O              pKi            6.46

The recorded pKi for "Cn1cc(-c2cc(S(C)(=O)=O)ccc2OCCC2CC2)c2cc[nH]c2c1=O" is 8.54

The recorded pKi for "Cn1cc(-c2cc(S(C)(=O)=O)ccc2Oc2ccc(Cl)c(F)c2)c2cc[nH]c2c1=O" is 7.64
